# TEST SYSTEM: T1, recombinant mouse VEGF164 (mouse, UniProt Q00731-2 27-190)
# T1 construct: biotinylated in the mVEGFR2 AlphaScreen; also called rmVEGF164; mVEGF164
# T1 sequence (looked up): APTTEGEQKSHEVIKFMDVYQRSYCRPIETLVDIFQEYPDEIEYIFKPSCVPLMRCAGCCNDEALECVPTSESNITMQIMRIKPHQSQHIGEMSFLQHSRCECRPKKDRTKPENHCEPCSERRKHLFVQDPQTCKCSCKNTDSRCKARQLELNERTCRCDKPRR
# ASSAY PROCEDURE: binding ELISA on coated mouse VEGF164
METRIC: binding result

{"columns": ["BINDER", "ASSAY RESULT"],
 "data": [
  ["VEGFBII025 (VHH, biparatopic bivalent VHH in one chain; also called VEGFBII10E07-40GS-23B04) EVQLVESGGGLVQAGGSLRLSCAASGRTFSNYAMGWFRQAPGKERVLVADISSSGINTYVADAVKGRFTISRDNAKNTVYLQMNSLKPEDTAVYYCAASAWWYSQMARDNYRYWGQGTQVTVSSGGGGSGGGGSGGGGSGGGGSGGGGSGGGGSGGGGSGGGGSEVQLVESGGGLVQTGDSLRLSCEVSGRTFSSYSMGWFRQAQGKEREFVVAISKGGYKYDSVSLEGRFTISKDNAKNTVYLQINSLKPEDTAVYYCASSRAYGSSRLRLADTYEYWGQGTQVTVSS", "binds"],
  ["VEGFBII010 (VHH, bivalent VHH in one chain; also called VEGFBII23B04-35GS-23B04; homodimeric VEGFBII23B04) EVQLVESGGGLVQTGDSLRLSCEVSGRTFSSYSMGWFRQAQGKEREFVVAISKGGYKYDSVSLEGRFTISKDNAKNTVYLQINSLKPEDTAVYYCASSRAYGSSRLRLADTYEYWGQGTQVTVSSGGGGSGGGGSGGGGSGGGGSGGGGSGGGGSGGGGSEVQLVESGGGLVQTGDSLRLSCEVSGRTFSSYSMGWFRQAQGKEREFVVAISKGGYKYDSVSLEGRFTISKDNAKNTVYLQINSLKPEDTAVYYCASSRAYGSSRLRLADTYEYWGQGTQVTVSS", "binds"],
  ["VEGFBII023 (VHH, biparatopic bivalent VHH in one chain; also called VEGFBII23B04-40GS-10E07; VEGFBI023) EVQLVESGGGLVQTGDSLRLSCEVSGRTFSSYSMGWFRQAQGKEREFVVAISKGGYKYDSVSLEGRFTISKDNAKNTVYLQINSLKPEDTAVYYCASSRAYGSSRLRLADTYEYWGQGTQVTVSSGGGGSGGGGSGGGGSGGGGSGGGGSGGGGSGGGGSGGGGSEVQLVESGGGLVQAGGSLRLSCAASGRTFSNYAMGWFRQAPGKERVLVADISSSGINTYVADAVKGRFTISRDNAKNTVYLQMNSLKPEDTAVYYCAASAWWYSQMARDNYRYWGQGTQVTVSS", "binds"],
  ["VEGFBII024 (VHH, biparatopic bivalent VHH in one chain; also called VEGFBII23B04-40GS-86H09; VEGFBI024) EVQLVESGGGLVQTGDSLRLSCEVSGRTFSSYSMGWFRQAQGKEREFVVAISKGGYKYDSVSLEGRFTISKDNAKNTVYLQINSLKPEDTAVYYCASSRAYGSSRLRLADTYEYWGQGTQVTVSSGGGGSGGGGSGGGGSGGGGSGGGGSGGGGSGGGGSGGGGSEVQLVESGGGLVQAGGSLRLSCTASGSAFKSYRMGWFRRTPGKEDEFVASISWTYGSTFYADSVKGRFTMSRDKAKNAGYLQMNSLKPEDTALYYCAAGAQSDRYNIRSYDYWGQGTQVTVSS", "binds"]
]}

Data origin, for the record: patent US20170247475A1
